This section presents binders with their documented pKd values.
# target_entity: T1, Human CD73 ECD (human, UniProt P21589 27-549)
# T1 construct: Biotinylated in some assays; also called human CD73 extracellular domain; huCD73
# T1 sequence: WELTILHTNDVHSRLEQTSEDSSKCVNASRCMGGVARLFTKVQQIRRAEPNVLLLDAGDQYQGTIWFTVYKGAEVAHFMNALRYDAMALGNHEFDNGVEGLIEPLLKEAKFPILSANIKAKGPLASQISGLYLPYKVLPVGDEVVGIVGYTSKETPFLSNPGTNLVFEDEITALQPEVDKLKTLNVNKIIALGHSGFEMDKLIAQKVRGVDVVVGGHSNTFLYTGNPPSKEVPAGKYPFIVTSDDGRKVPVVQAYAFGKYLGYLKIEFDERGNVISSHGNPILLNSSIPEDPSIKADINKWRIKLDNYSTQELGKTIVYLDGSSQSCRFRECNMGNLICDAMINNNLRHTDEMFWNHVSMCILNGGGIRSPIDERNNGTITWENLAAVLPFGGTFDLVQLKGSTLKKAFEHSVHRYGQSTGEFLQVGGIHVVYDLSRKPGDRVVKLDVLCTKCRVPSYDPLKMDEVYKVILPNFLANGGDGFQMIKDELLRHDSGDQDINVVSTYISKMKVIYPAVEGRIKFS
# procedure_summary: SPR (Proteon)
// returns pKd (minus log10 of molar concentration), number only

Some binders with recorded pKd:
- binder: "73combo2 (C2+GRVE+HPT) (antibody, V domains shown, IgG1-TM format; also called clone 10 combo2) VH: EVQLLESGGGLVQPGGSLRLSCAASGFTFSSYAYSWVRQAPGKGLEWVSLIWGSWGSTYYADSVKGRFTISRDNSKNTLYLQMNSLRAEDTAVYYCARLGYGRVDEWGRGTLVTVSS VL: QSVLTQPPSASGTPGQRVTISCSGSLSNIGRNPVNWYQQLPGTAPKLLIYLDNLRLGGVPDRFSGSKSGTSASLAISGLQSEDEADYYCATWDDSHPGWTFGGGTKLTVL"
  quantitative_result: 11.30
- binder: "C2 (IgG1-TM) (antibody, V domains shown, IgG1-TM format; also called clone 10 C2) VH: EVQLLESGGGLVQPGGSLRLSCAASGFTFSSYAYSWVRQAPGKGLEWVSLIWGSWGSTYYADSVKGRFTISRDNSKNTLYLQMNSLRAEDTAVYYCARLGYSTIDMWGRGTLVTVSS VL: QSVLTQPPSASGTPGQRVTISCSGSLSNIGRNPVNWYQQLPGTAPKLLIYLDNLRLGGVPDRFSGSKSGTSASLAISGLQSEDEADYYCATWDDSLKGWLFGGGTKLTVL"
  quantitative_result: 10.64

Lookup: Would you mind telling me what pKd value was observed for 73combo5 (G10+GRVE+HPT) (antibody, V domains shown, IgG1-TM format; also called clone 10 combo5) VH: EVQLLESGGGLVQPGGSLRLSCAASGFTFSSYAYSWVRQAPGKGLEWVSAISGSWGRTYYADSVKGRFTISRDNSKNTLYLQMNSLRAEDTAVYYCARLGYGRVDEWGRGTLVTVSS VL: QSVLTQPPSASGTPGQRVTISCSGSLSNIGRNDVNWYQQLPGTAPKLLIYLNNQRLGGVPDRFSGSKSGTSASLAISGLQSEDEADYYCATWDDSHPGWTFGGGTKLTVL ?
Found: 11.15

Lookup: Try this binder next: G10 (IgG1-TM) (antibody, V domains shown, IgG1-TM format; also called clone 10 G10) VH: EVQLLESGGGLVQPGGSLRLSCAASGFTFSSYAYSWVRQAPGKGLEWVSAISGSWGRTYYADSVKGRFTISRDNSKNTLYLQMNSLRAEDTAVYYCARLGYSTIDLWGRGTLVTVSS VL: QSVLTQPPSASGTPGQRVTISCSGSLSNIGRNDVNWYQQLPGTAPKLLIYLNNQRLGGVPDRFSGSKSGTSASLAISGLQSEDEADYYCATWDDSLKGWLFGGGTKLTVL
Found: 11.05

Lookup: Try this binder next: CD730002 2C5 (antibody, V domains shown, IgG1-TM format; also called clone 2C5 antibody) VH: EVQLLESGGGLVQPGGSLRLSCAASGFTFSSYAMSWVRQAPGKGLEWVSAISGSGGSTYYADSVKRRFTISRDNSKNTLYLQMNSLRAEDTAVYYCARDKGYYWYMDVWGQGTMVTVSS VL: QSVLTQPPSVSVSPGQTASITCSGDKVGDKYASWYQQKPGQSPVLVIYEDTKRLSGIPERFSGSNSGNTATLTISGTQAMDEADYYCQAWDTSFWVFGGGTKLTVL
Found: 11.05
